Test: viability loss in pontine glioma line – cell-based, SU-DIPG-IV, MIPE4.0, CellTiter-Glo, qHTS, dose response (AID 1347063);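 further: compound exposure lasted 48 hours before the viability readout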
Conditions: CellTiter-Glo ATP luminescence
Results filed as inconclusive are left out. Active and inactive are the calls of the source. Cut-off not given; nearly all actives show AC50 up to about 30 µM.
Valid outcomes are listed here; reply with one: t for active, f for inactive

{"molecular-string": "CC(=O)O[C@H]1C[C@@H]2CC[C@@H]3[C@H](CC[C@@]4(C)[C@H]3C[C@H]([N+]3(C)CCCCC3)[C@@H]4OC(C)=O)[C@@]2(C)C[C@@H]1[N+]1(C)CCCCC1", "discrete-label": "f"}
{"molecular-string": "Cn1cc(-c2cnn3c(N)c(Br)c([C@@H]4CCCNC4)nc23)cn1", "discrete-label": "t"}
{"molecular-string": "COc1ccccc1[C@H](c1cccc2ccccc12)[C@@](C)(C#N)C(=O)N1CCC(c2cccc(C(F)(F)F)c2)CC1", "discrete-label": "t"}
{"molecular-string": "Nc1ncnc2c1ncn2[C@@H]1O[C@@H](CO)[C@H](O)[C@@H]1O", "discrete-label": "f"}
{"molecular-string": "NC(=O)N1CCC(CC(=O)N2CCC([C@H]3c4ncc(Br)cc4CCc4cc(Cl)cc(Br)c43)CC2)CC1", "discrete-label": "t"}

Q: How was COc1ccc(S(=O)(=O)Nc2cc(-c3c(O)ccc4ccccc34)c(O)c3ccccc23)cc1 classified in this test?
Ans: t

Q: How was CCN1CCN(Cc2ccc(-c3cc4c(N[C@H](C)c5ccccc5)ncnc4[nH]3)cc2)CC1 classified in this test?
Ans: t

Q: How was COc1cc(C(C)C)c(Oc2cnc(NC(CO)CO)nc2N)cc1I classified in this test?
Ans: t
